- Tested on: CCRF-CEM
- test: NCI tumour cell line growth inhibition, 48 h
The source made the active and inactive calls. Cut-off read from the data, not from the text of the source: active = GI50 up to about 1.1 µM and inactive = higher.
I'd be grateful if you could share measured GI50 for these entries.

Below, 8 compounds whose answers are already recorded.
compound	GI50
Cc1[nH]n(-c2nc(O)c(C)c(=O)[nH]2)c(=O)c1CCO	> 100 µM (inactive)
CCOP(=O)(OCC)C(C)(C)OC(=O)NC(F)(F)F	> 100 µM (inactive)
COc1cc(C(O)(CC#N)c2cc3c(cc2Br)OCO3)cc(OC)c1OC (stereo unspecified)	43.2 µM (inactive)
Cc1cc(O)c2c(c1)C(C1OC(CO)C(O)C(O)C1O)c1cc(O)cc(O)c1C2=O (stereo unspecified)	> 100 µM (inactive)
O=C(c1ccccc1)N1CCN(C(=S)NC2CCCCC2)C1=S	12.2 µM (inactive)
Cc1cccc(Nc2cc(Cl)nc(SCC(=O)O)n2)c1C	> 100 µM (inactive)
CCOP(=O)(OCC)C(Cc1ccccc1)N=C(c1ccccc1)c1ccccc1 (stereo unspecified)	9.95 µM (inactive)
CC1(C)[C@H](O)CC[C@]2(C)C3=CC[C@@]4(C)[C@@H]5C[C@](C)(CO)CC[C@]5(C)CC[C@]4(C)C3=CC[C@@H]12	1.63 µM (inactive)

Quick request: GI50 for each listed item, please.
1. COC(=O)C1CCC(C)CC1=O (stereo unspecified)
2. CCOP(=O)(OCC)C(Nc1ccc(F)cc1)c1cccc([N+](=O)[O-])c1 (stereo unspecified)
3. CN1CCC2(CC1)C(=O)N(NC(N)=O)C(=O)C2c1ccccc1 (stereo unspecified)
4. O=C(/C=C/c1ccc(O)cc1)c1cc(-c2cc(CCC(=O)c3ccc(O)cc3O)ccc2O)c(O)cc1O

> 100 µM (inactive)
62.4 µM (inactive)
> 100 µM (inactive)
13.1 µM (inactive)

###

- Tested on: MOLT-4
- test: NCI tumour cell line growth inhibition, 48 h
Calls of active or inactive are those of the source. Cut-off read from the data, not from the text of the source: active = GI50 up to about 1.1 µM and inactive = higher.
I'd be grateful if you could share measured GI50 for these entries.

compound	target-or-system	GI50
Cc1ccc2c(c1)C(=O)/C(=C\c1ccc(Cl)cc1)CCS2(=O)=O	MOLT-4	1.85 µM (inactive)
O=C(O)c1nc2ccc(C(F)(F)F)cc2nc1NCc1ccc(Cl)c(Cl)c1	MOLT-4	12.3 µM (inactive)
O=C(CO)CC(=O)C(=O)Nc1ccccc1	MOLT-4	> 100 µM (inactive)
CC1=NNC(=O)C1C1CC(c2c[nH]c3ccccc23)=NN=C1Cl (stereo not given)	MOLT-4	24.2 µM (inactive)

// sample Cc1ccc([N+](=O)[O-])cc1S(=O)(=O)Nc1ccc(C2=NOC(c3ccccc3O)C2)cc1 (stereo not given) , its GI50 was 2.76 µM (inactive)

###

- Tested on: SNB-78
- test: NCI tumour cell line growth inhibition, 48 h
Where a name gives a salt, the structure may show the parent alone. Calls of active or inactive are those of the source. Rule as the data show it: active = GI50 up to about 1.1 µM and inactive = higher.
measurement-label: GI50

compound	target-or-system	GI50
CCOC(=O)/C(O)=C(/C(=O)OC)c1ccc(Cl)cc1	SNB-78	> 100 µM (inactive)
COc1cc(/C=C/C(=N\NC(=O)c2ccccc2)c2sc(Nc3ccc(Cl)c(Cl)c3)nc2C)ccc1O	SNB-78	29.3 µM (inactive)
CCOc1ccc(NCC2CC/C(=C\c3ccc(Cl)cc3)C2=O)cc1 (configuration not stated)	SNB-78	98.9 µM (inactive)
CC1=C(SC#N)S(=O)(=O)N(c2ccccc2)C(C)=C1SC#N	SNB-78	78.3 µM (inactive)
CC1(C)NC(=O)N(CCCCCCN2C(=O)NC(C)(C)C2=O)C1=O	SNB-78	> 100 µM (inactive)

Quick request: GI50 for each listed item, please.
1. NCCSSCCN [CYSTAMINE HYDROCHLORIDE]
2. C=C(C)C1CC2C(C)=C(OC(C)=O)C1n1c(=O)c3cc4ccccc4cc3c(=O)n12 (configuration not stated)
3. O=C(CO)CC(=O)C(=O)Nc1ccccc1
4. CCCCCCCCCCCCCCCC(=O)OCC1OC(n2cc(F)c(=O)[nH]c2=O)C(NC(=O)OCc2ccccc2)C(O)C1O (configuration not stated)
5. O=C(/C=C\c1cccc2ccccc12)c1ccc(Br)cc1
6. O=c1/c(=C/c2ccc3c(c2)OCO3)sc2nnc(-c3ccco3)n12
7. COc1ccc2c(c1)[n+]([O-])c(C(=O)C/C(=N/OCCCc1ccccc1)C(=O)NC13CC4CC(CC(C4)C1)C3)c(C)[n+]2[O-]

1. > 100 µM (inactive)
2. 95.9 µM (inactive)
3. > 100 µM (inactive)
4. 20.6 µM (inactive)
5. 20.6 µM (inactive)
6. > 100 µM (inactive)
7. > 100 µM (inactive)

Quick request: GI50 for each listed item, please.
1. N#C/C(=C\c1ccc[nH]1)C(=O)c1ccccc1
2. O=c1ccn(/C=C/C(O)C(O)CO)c(=O)[nH]1 (configuration not stated)
3. O=C(O)C1CC2CC(=O)C1C2 (configuration not stated)
4. COc1cc2cc[n+]3c(C)c4cc(OC)c(OC)cc4c([O-])c3c2cc1OC

1: > 100 µM (inactive); 2: > 100 µM (inactive); 3: > 100 µM (inactive); 4: > 100 µM (inactive)

Quick request: GI50 for each listed item, please.
1. O=C1CCC2(O)c3ccccc3C2Cc2ccccc21 (configuration not stated)
2. CCCCOP1(=O)CC(C)=C(Cl)C(C)(OC)C1 (configuration not stated)
3. O=C(Nc1ccc(Sc2ccc(/N=N/c3c(O)c(S(=O)(=O)O)cc4cc(S(=O)(=O)O)ccc34)cc2)cc1)c1ccc(/N=N/c2c(O)ccc3c(S(=O)(=O)O)cc(S(=O)(=O)O)cc23)cc1
4. COc1cc(CC2c3cc(OC)c(OC)cc3CCN2C)c(C(=O)O)cc1OC (configuration not stated)
5. C/C=C1\CCC2c3[nH]c4ccccc4c3CCN2C1 (configuration not stated)
6. O=C1CCN2CCC(=O)c3c2c(cc2ccccc32)N1

["> 100 µM (inactive)", "> 100 µM (inactive)", "36.4 µM (inactive)", "> 100 µM (inactive)", "> 100 µM (inactive)", "> 100 µM (inactive)"]

Quick request: GI50 for each listed item, please.
1. Cc1cn(C2CC(O)C(CO)O2)c(=O)[nH]c1=O (configuration not stated)
2. COc1ccc(CNc2cc(OC)c(OC)c(OC)c2)cc1

["3180 µM (inactive)", "4.62 µM (inactive)"]

Attribution: ChEMBL document CHEMBL1201862
